Where do these numbers come from? They come from PubChem BioAssay.

biological target: Neurogenic locus notch homolog protein 2 (Homo sapiens) (UniProt Q04721); assay: small molecules binding Notch2 protein – biochemical, small-molecule microarray, 635 nm fluorescence, stem cell growth factors, primary screen (AID 1073); settings: higher = more signal
Sequence (Q04721 whole entry, looked up): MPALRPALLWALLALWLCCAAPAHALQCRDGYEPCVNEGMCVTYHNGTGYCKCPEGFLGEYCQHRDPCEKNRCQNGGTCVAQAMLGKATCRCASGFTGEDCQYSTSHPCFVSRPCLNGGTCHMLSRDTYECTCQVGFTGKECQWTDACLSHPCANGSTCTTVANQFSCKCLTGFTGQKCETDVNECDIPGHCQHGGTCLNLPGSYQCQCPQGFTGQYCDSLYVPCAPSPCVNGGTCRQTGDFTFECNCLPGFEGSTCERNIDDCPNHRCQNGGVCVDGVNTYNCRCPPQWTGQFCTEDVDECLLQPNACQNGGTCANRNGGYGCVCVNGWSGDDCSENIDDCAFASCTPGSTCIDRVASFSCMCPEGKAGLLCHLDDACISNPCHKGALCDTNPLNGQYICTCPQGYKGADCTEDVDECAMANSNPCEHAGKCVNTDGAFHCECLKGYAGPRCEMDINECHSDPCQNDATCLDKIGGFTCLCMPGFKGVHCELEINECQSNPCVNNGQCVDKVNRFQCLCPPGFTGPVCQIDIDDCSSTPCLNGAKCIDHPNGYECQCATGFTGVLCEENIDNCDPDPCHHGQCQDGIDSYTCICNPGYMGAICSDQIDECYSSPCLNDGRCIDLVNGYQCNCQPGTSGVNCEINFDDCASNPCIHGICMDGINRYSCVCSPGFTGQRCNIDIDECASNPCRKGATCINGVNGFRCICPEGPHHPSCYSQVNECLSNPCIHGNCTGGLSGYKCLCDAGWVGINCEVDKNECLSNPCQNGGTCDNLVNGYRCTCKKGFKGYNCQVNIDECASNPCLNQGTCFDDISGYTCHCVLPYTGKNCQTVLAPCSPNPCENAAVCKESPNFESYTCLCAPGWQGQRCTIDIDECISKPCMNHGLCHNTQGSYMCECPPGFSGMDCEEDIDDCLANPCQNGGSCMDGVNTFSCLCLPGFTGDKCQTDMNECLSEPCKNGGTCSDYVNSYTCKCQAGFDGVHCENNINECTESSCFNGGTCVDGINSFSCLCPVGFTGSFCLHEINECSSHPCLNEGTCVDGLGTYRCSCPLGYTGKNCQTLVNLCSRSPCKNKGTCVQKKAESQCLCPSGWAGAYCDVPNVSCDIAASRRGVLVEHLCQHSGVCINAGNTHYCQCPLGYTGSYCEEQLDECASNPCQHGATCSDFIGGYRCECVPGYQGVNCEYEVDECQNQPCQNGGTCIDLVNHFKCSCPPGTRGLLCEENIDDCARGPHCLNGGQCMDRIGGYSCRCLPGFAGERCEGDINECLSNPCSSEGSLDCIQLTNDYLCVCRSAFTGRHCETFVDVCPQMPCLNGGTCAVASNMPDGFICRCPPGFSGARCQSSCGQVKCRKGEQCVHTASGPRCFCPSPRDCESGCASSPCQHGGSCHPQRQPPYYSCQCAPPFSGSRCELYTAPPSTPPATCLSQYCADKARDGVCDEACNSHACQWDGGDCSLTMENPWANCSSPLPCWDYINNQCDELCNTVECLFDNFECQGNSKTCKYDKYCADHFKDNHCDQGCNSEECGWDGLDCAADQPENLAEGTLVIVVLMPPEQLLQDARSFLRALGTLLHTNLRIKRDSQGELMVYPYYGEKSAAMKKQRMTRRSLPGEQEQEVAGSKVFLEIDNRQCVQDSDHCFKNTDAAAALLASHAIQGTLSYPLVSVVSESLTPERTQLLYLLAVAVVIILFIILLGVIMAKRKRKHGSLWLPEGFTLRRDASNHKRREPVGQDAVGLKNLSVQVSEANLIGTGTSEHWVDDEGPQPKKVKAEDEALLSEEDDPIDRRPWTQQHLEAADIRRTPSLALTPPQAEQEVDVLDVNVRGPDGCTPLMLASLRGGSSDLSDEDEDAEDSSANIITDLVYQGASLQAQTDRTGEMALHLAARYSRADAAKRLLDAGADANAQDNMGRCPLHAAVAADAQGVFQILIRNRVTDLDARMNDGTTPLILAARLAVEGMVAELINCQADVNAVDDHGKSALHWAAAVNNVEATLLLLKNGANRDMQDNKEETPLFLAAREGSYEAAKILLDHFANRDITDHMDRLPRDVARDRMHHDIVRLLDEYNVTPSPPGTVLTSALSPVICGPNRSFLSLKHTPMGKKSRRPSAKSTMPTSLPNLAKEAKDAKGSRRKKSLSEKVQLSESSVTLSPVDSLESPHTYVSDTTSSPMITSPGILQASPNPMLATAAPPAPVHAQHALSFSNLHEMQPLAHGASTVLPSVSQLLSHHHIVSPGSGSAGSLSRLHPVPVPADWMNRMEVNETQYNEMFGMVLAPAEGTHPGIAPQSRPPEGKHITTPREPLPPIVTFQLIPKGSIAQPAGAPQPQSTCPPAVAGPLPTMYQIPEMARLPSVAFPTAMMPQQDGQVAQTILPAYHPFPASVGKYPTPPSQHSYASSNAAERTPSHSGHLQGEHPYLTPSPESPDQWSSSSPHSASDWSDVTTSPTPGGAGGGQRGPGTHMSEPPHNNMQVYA

MOLECULE: C=C(COC)/C(=C/C[C@H](OC(=O)c1ccncc1)c1ccc(CO)o1)c1cnc2ccccc2c1
composite z-score: 1.21

MOLECULE: Cc1ccc(S[C@]2(C(=O)NCC(F)(F)F)CC(=O)N(Cc3cc(C(F)(F)F)cc(C(F)(F)F)c3)[C@@H]2c2ccc(CO)cc2I)cc1
composite z-score: -1.14

MOLECULE: C=CCN1C(=O)[C@]2(CCS(=O)(=O)c3ccccc3)N=C(c3ccc(OCCCO)cc3)O[C@@H]2c2ccccc21
composite z-score: 0.84

MOLECULE: CN(C)C(=O)[C@@]1(Cc2ccccc2)N=C(c2ccc(OCCCO)cc2)O[C@H]1c1ccccc1
composite z-score: 1.5

MOLECULE: CS(=O)(=O)CCOC(=O)C1=CC(c2ccc(CO)cc2)=CC(C2CC2)N(Cc2sc3ccccc3c2Cl)C=C1C(=O)OCCS(C)(=O)=O (stereo not drawn)
composite z-score: 0.87

MOLECULE: O=C1NC(=O)C2C1C=CC(C(O)c1ccco1)N2Nc1ccc(Cl)cc1Cl (stereo not drawn)
composite z-score: 0.42

MOLECULE: CCCC=C(CCC)[C@@H](NC(=O)c1cccs1)c1ccc(C(=O)OC)cc1
composite z-score: 0.592

MOLECULE: COC(=O)C1=CC(CCCO)=CC(c2cccs2)N(Cc2cccc(OC(F)(F)F)c2)C=C1C(=O)OC (stereo not drawn)
composite z-score: 1.51

###

Overview of recorded z-score for various compounds
biological target: NADPH oxidase 4 (Homo sapiens) (UniProt Q9NPH5); experiment: compounds shifting NOX4 Amplex Red fluorescence – cell-based, HEK293-NOX4, tetracycline-induced, NOX inhibitor project, primary screen (AID 1160); conditions: HEK293-NOX4, Amplex Red H2O2 fluorescence, 45 min; higher = more signal, called active from +8 up or from −8 down
Sequence (Q9NPH5 whole entry, looked up): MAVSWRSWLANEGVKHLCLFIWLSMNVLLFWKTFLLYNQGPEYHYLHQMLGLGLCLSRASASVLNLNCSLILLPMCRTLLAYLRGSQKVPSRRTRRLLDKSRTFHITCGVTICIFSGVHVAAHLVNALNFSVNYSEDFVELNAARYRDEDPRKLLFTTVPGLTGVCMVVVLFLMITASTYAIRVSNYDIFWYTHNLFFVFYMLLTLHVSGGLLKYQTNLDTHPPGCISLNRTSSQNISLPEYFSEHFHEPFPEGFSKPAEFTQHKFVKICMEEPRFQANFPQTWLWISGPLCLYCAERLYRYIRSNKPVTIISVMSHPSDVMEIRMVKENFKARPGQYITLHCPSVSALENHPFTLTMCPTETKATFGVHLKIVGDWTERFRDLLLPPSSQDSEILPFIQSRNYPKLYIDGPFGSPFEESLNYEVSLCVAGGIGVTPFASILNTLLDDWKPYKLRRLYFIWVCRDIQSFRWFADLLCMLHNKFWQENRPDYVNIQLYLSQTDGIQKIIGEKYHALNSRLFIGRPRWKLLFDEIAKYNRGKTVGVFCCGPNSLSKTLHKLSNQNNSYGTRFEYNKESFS
Calls of active or inactive are those of the source.
OUTCOME MEASURE: z-score

COMPOUND: CC(C)C(CO)N1C(=O)[C@@H]2C3C(=O)OCCC/C=C\[C@H]3OC23C=CCN(c2ccc4ccccc4c2)C(=O)[C@@H]13 (some centres undefined)
OUTCOME MEASURE: z-score
RESULT: 0.767 (inactive)
//
COMPOUND: [N-]=[N+]=Nc1ccccc1C[C@]1(C(=O)N2CCOCC2)COC(c2ccc(OCCCO)cc2)=N1
OUTCOME MEASURE: z-score
RESULT: -0.00663 (inactive)
//
COMPOUND: CN(C)C(=O)[C@@]1(Cc2ccccc2CN=[N+]=[N-])N=C(c2ccc(OCCCO)cc2)O[C@H]1c1ccccc1N=[N+]=[N-]
OUTCOME MEASURE: z-score
RESULT: -0.18 (inactive)
//
COMPOUND: COCCOC(=O)N1C(=O)[C@@]2(c3cc(C#CC4(O)CCCCCC4)ccc31)[C@H](C(=O)N1CCc3cc(OC)c(OC)cc3C1)[C@H]1C(=O)O[C@H](c3ccccc3)[C@H](c3ccccc3)N1[C@@H]2c1ccc(OCCO)cc1
OUTCOME MEASURE: z-score
RESULT: 0.614 (inactive)
//
COMPOUND: NC(=O)NCC#Cc1ccc2c(c1)[C@]1(C(=O)N2)[C@H](C(=O)N2CCN(c3ncccn3)CC2)[C@H]2C(=O)O[C@H](c3ccccc3)[C@H](c3ccccc3)N2[C@@H]1c1ccc(O)cc1
OUTCOME MEASURE: z-score
RESULT: 0.162 (inactive)
//
COMPOUND: COC(=O)[C@@]1(Cc2ccccc2)[C@H]2c3cc(C(=O)N4CCCC4)n(CCc4ccccn4)c3C[C@H]2CN1C(=O)c1ccccc1
OUTCOME MEASURE: z-score
RESULT: 0.311 (inactive)
//
COMPOUND: CCOC(=O)C[C@H]1[C@H](OC(=O)c2ccccc2-c2ccccc2)[C@@H](NC(=O)c2ccc3ccccc3c2)c2cc(OCCCO)ccc2N1C(=O)c1ccccc1
OUTCOME MEASURE: z-score
RESULT: 0.89 (inactive)
//
COMPOUND: CC(C)N1C(=O)C[C@@](C(=O)O)(c2ccc([N+](=O)[O-])cc2)[C@H]1c1ccc(CO)cc1
OUTCOME MEASURE: z-score
RESULT: 0.251 (inactive)
//
COMPOUND: C=CC[C@@]1(C(=O)NCCCOC)N=C(c2ccc(OCCCO)cc2)O[C@@H]1c1ccccc1
OUTCOME MEASURE: z-score
RESULT: 0.523 (inactive)
//
COMPOUND: COC(=O)c1c(CC[C@@H](CO)NC(=O)N[C@@H](C)Cn2cc(-c3ccccn3)nn2)oc(C(C)=O)c1C(=O)OC
OUTCOME MEASURE: z-score
RESULT: -2.23 (inactive)
//
COMPOUND: COc1ccc([Si](C)(C)[C@H]2[C@H](CC(=O)N3CCC[C@H]3CO)O[C@@]3(C(=O)N(Cc4ccc(N5CCOC5=O)cc4)c4ccccc43)[C@@H]2C)cc1
OUTCOME MEASURE: z-score
RESULT: -0.0662 (inactive)
//
COMPOUND: COCCCNC(=O)[C@@]1(Sc2ccc(C)cc2)CC(=O)N(C2Cc3ccccc3C2)[C@@H]1c1ccc(CO)cc1
OUTCOME MEASURE: z-score
RESULT: -0.107 (inactive)
//
COMPOUND: COc1ccc([C@H]2OC[C@@H]3C[C@H](Cc4ccccc4)C(=O)N32)cc1
OUTCOME MEASURE: z-score
RESULT: 0.284 (inactive)
//
COMPOUND: CCCCCCc1nc(Cc2cc(OC)c(OC)c(OC)c2)cc2c1[Si](C(C)C)(C(C)C)OC2
OUTCOME MEASURE: z-score
RESULT: -1.88 (inactive)
//
COMPOUND: COc1cc(NN2C(C(O)c3ccco3)C=CC3C(=O)N(C)C(=O)C32)cc(OC)c1OC (centres undefined)
OUTCOME MEASURE: z-score
RESULT: -3.55 (inactive)
//
COMPOUND: C=CCC(OC(C)=O)[C@@H]1[C@@H](N(Cc2ccc(-c3cccc(C(F)(F)F)c3)o2)C(=O)c2ccc(-c3ccccc3)cc2)c2cc(OCCCO)ccc2N1C(=O)Cc1ccc2ccccc2c1 (some centres undefined)
OUTCOME MEASURE: z-score
RESULT: -1.69 (inactive)
//
COMPOUND: CC(C)[Si](C#CCCCC#N)(O[C@H](c1ccccc1)c1cn(Cc2ccccc2)nn1)C(C)C
OUTCOME MEASURE: z-score
RESULT: 0.912 (inactive)
//
COMPOUND: COCCOC(=O)N1C(=O)[C@@]2(c3cc(C#CC4=CCCCC4)ccc31)[C@H](c1ccccc1OCCO)N1[C@H](c3ccccc3)[C@H](c3ccccc3)OC(=O)[C@H]1[C@@H]2C(=O)N1CCN(c2ncccn2)CC1
OUTCOME MEASURE: z-score
RESULT: 0.868 (inactive)
//
COMPOUND: CC(C)N1CC=CC23O[C@@H]4C=CCCOC(=O)C4[C@H]2C(=O)N(CCCO)[C@@H]3C1=O (some centres undefined)
OUTCOME MEASURE: z-score
RESULT: -2.17 (inactive)
//
COMPOUND: CCCCCN1CC=CC23O[C@@H]4/C=C\CCCOC(=O)C4[C@H]2C(=O)N(C(C)CO)[C@@H]3C1=O (some centres undefined)
OUTCOME MEASURE: z-score
RESULT: 0.19 (inactive)
//
COMPOUND: CCOC(=O)C1=CC[C@@H](c2ccccc2F)N(S(=O)(=O)c2ccc(C)cc2)[C@H]1c1ccccc1
OUTCOME MEASURE: z-score
RESULT: 0.6 (inactive)
//
COMPOUND: Cc1ccc(S[C@]2(C(=O)NC(C)C)CC(=O)N(Cc3cc(C(F)(F)F)cc(C(F)(F)F)c3)[C@@H]2c2ccc(CO)cc2)cc1
OUTCOME MEASURE: z-score
RESULT: -0.242 (inactive)
//
COMPOUND: O=C(C1N=C(c2ccc(OCCCO)cc2)N(c2ccccc2)O1)N1CCCCC1 (centres undefined)
OUTCOME MEASURE: z-score
RESULT: 0.209 (inactive)
//
COMPOUND: C=CCOC(=O)[C@@]1(Cc2ccccc2)C[C@H]2CO[C@H](c3ccc(OC)cc3)N2C1=O
OUTCOME MEASURE: z-score
RESULT: -0.213 (inactive)
//
COMPOUND: CC1CC/C=C\[C@H]2OC34C=CCN(c5ccc6ccccc6c5)C(=O)[C@H]3N(CCCO)C(=O)[C@@H]4C2C(=O)O1 (some centres undefined)
OUTCOME MEASURE: z-score
RESULT: -1.18 (inactive)
//
COMPOUND: [N-]=[N+]=Nc1ccccc1C[C@@]1(C(=O)N2CCOCC2)N=C(c2ccc(OCCCO)cc2)O[C@@H]1c1ccccc1
OUTCOME MEASURE: z-score
RESULT: 0.265 (inactive)
//
COMPOUND: CCCC[C@@H](O)C1=C(COC)C[C@H]2C(=O)N(Cc3ccccc3)C(=O)[C@H]2[C@H]1CO
OUTCOME MEASURE: z-score
RESULT: 0.282 (inactive)
//
COMPOUND: C=C(/C(=C/C[C@H](OC(C)=O)c1ccc(CO)o1)c1cnc2ccccc2c1)C(C)C
OUTCOME MEASURE: z-score
RESULT: -0.246 (inactive)
//
COMPOUND: CCCCCN1CC=CC23O[C@@H]4/C=C\CCC(C)OC(=O)C4[C@H]2C(=O)N(C(CO)C(C)C)[C@@H]3C1=O (some centres undefined)
OUTCOME MEASURE: z-score
RESULT: -0.231 (inactive)
